# assay_system: T1, human IL-2Rα (human, UniProt P01589 22-240, limits assumed)
# T1 construct: recombinant protein; also called hu IL-2R; human IL-2Ra
# T1 sequence: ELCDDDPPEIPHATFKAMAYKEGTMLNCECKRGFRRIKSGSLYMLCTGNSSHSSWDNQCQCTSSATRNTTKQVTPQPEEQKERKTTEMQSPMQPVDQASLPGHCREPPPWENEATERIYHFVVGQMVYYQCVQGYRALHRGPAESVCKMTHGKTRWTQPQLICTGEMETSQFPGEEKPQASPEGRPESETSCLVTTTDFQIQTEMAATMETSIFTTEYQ
# assay_name: SPR, P.E. on immobilised antigen
endpoint: koff

koff recorded for this binder, FJ1427_P035MP01G11 (VHH, periplasmic extract; also called clone nr; 87) VHH: QVQLVESGGGLVQAGGSLRLSCAASGITFNDHTMAWFRQAPGKEREFVAARDWSDIITRYASSVKGRFTISRDNAGNTGFLQMNSLRPEDTAVYYCAAREGGVVAGVRSGAPYDYWGRGTQVTVSS , is 0.000123 s⁻¹

koff recorded for this binder, 11-MP05H04 (VHH, periplasmic extract; also called FJ1427_P035MP05H04) VHH: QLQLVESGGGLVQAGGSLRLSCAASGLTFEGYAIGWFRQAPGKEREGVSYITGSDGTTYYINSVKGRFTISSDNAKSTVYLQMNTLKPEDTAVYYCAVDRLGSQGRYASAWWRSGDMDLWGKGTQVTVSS , is 0.0012 s⁻¹

The reported measurements were obtained from patent US20240409645A1.
